Target: T1, mouse CD47-IgV-Domain-hIg fusion protein (mouse), Q61735
T1 chain: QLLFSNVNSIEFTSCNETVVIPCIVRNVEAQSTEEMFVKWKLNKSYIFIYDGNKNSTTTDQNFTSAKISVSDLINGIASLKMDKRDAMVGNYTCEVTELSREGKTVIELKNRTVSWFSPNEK
Experiment: flow cytometry on cells; competition: CD47-IgV-Domain-hIg (20 nM) incubated with titrating concentrations of peptide in PBS pH 7.4 for 1 hour at 4°C, then on SIRPα-overexpressing CHO cells 30 min at 4°C; PE-conjugated goat anti-human IgG; IC50 from sigmoidal dose response curves
assay_metric: IC50 (µM)
// units = µM; emit number, no label

INPUT: Specify measured IC50 for AWSATWSNYWRH (modifications not checked) [pep-20] .
OUTPUT: 12
